biological target: Serine/threonine-protein kinase B-raf (Homo sapiens, UniProt P15056); experiment: Inhibition of wild type B-Raf in human MIAPaCa2 cells assessed as reduction in ERK phosphorylation preincubated for 1 hr by Western blot method
Sequence (P15056 whole entry): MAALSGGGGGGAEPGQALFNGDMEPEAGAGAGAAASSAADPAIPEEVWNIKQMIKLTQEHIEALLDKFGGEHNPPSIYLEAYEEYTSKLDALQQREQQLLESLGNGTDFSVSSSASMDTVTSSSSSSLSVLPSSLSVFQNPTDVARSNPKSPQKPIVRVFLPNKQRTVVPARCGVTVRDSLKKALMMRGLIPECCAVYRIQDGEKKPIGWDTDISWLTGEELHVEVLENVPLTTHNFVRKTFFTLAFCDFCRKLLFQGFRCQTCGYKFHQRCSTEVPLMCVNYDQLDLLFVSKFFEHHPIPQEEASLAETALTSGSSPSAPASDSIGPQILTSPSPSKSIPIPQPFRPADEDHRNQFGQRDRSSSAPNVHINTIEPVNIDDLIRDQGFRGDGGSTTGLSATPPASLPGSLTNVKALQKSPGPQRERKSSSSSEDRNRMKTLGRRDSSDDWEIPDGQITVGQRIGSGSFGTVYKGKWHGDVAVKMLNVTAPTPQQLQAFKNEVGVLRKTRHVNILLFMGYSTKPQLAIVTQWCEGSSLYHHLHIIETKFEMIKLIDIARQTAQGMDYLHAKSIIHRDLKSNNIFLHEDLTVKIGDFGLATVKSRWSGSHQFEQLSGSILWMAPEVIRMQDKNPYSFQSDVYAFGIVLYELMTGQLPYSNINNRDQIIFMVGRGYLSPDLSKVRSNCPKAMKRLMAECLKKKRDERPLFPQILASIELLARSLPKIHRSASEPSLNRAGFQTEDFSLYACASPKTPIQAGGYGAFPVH
Below, each entry is listed alongside its reported log10 EC50.
Assay Endpoint: log10 EC50 (log10 of the value in nM)

1. CCN(CC)S(=O)(=O)Nc1ccc(F)c(Nc2ncccc2-c2ncnc3[nH]cnc23)c1F; 4.00
2. CC(C)(C)CS(=O)(=O)Nc1ccc(F)c(Nc2ncccc2-c2ncnc3[nH]cnc23)c1F; 2.31
3. O=S(=O)(CC1CC1)Nc1ccc(F)c(Nc2ncccc2-c2ncnc3[nH]cnc23)c1F; 3.33
4. CC(C)CS(=O)(=O)Nc1ccc(F)c(Nc2ncccc2-c2ncnc3[nH]cnc23)c1F; 3.16
5. O=S(=O)(Nc1ccc(F)c(Nc2ncccc2-c2ncnc3[nH]cnc23)c1F)N1CCCCC1; 3.09

----------
biological target: Serine/threonine-protein kinase B-raf (Homo sapiens, UniProt P15056, V600E); assay: Inhibition of B-Raf V600E mutant in human A375 cells assessed as ERK phosphorylation preincubated for 1 hr by Western blot method; format: cell-based, A-375
Sequence (P15056 2-766 V600E limits assumed): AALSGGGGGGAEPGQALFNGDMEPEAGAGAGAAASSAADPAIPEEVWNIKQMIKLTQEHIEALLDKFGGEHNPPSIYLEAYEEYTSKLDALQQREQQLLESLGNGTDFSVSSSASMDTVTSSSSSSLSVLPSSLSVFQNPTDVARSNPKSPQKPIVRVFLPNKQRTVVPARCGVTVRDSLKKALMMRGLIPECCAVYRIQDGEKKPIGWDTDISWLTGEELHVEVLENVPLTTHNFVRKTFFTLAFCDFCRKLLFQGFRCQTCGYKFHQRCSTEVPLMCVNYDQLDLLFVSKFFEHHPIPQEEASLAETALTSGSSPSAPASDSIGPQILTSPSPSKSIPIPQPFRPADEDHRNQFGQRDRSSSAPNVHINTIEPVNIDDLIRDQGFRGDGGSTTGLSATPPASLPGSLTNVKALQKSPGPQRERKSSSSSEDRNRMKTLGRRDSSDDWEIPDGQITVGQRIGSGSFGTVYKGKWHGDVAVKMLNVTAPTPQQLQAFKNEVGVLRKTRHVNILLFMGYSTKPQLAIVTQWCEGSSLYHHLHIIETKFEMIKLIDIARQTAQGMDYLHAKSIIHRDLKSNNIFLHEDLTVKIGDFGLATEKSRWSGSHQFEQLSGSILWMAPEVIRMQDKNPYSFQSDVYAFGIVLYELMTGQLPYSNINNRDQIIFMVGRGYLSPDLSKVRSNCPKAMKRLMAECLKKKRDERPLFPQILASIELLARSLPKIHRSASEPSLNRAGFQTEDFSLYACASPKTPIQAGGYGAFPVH
Assay Endpoint: IC50 (nM)

1) O=S(=O)(Nc1ccc(F)c(Nc2ncccc2-c2ncnc3[nH]cnc23)c1F)c1ccccn1; 177
2) CC(C)(C)CS(=O)(=O)Nc1ccc(F)c(Nc2ncccc2-c2ncnc3[nH]cnc23)c1F; 63
3) CCCC(C)S(=O)(=O)Nc1ccc(F)c(Nc2ncccc2-c2ncnc3[nH]cnc23)c1F (centres undefined); 130
4) CCC(C)S(=O)(=O)Nc1ccc(F)c(Nc2ncccc2-c2ncnc3[nH]cnc23)c1F (centres undefined); 27
5) O=S(=O)(Nc1ccc(F)c(Nc2ncccc2-c2ncnc3[nH]cnc23)c1F)N1CCNCC1; 1000
6) O=S(=O)(Nc1ccc(F)c(Nc2ncccc2-c2ncnc3[nH]cnc23)c1F)C1CCCCC1; 40
7) O=S(=O)(Nc1ccc(F)c(Nc2ncccc2-c2ncnc3[nH]cnc23)c1F)N1CCCCC1; 65
8) O=S(=O)(Nc1ccc(F)c(Nc2ncccc2-c2ncnc3[nH]cnc23)c1F)c1ccccc1F; 12
9) O=S(=O)(Nc1ccc(F)c(Nc2ncccc2-c2ncnc3[nH]cnc23)c1F)N1CCOCC1; 293
10) O=S(=O)(Nc1ccc(F)c(Nc2ncccc2-c2ncnc3[nH]cnc23)c1F)C1CCC1; 41
11) O=S(=O)(Nc1ccc(F)c(Nc2ncccc2-c2ncnc3[nH]cnc23)c1F)C1CCOC1 (centres undefined); 31
12) O=S(=O)(Nc1ccc(F)c(Nc2ncccc2-c2ncnc3[nH]cnc23)c1F)c1ccc(F)cc1; 242
13) O=S(=O)(Nc1ccc(F)c(Nc2ncccc2-c2ncnc3[nH]cnc23)c1F)C1CCCC1; 11
14) CCN(C)S(=O)(=O)Nc1ccc(F)c(Nc2ncccc2-c2ncnc3[nH]cnc23)c1F; 87
15) CS(=O)(=O)Nc1ccc(F)c(Nc2ncccc2-c2ncnc3[nH]cnc23)c1F; 356
16) O=S(=O)(Nc1ccc(F)c(Nc2ncccc2-c2ncnc3[nH]cnc23)c1F)N1CC[C@@H](O)C1; 233
17) O=S(=O)(Nc1ccc(F)c(Nc2ncccc2-c2ncnc3[nH]cnc23)c1F)c1cccs1; 7
18) O=S(=O)(Nc1ccc(F)c(Nc2ncccc2-c2ncnc3[nH]cnc23)c1F)c1cn[nH]c1; 6

----------
molecular target: Serine/threonine-protein kinase B-raf (Homo sapiens, UniProt P15056, V600E); assay: Inhibition of B-Raf V600E mutant (unknown origin) assessed as MEK1 phosphorylation using MEK1-Avitag as substrate after 1 hr by HTRF assay
pIC50: −log10 of the molar value.
Assay Endpoint: pIC50

1. O=S(=O)(Nc1ccc(F)c(Nc2ncccc2-c2ncnc3[nH]cnc23)c1F)c1cccs1; 9.00
2. O=S(=O)(Nc1ccc(F)c(Nc2ncccc2-c2ncnc3[nH]cnc23)c1F)c1cccnc1; 9.00
3. O=S(=O)(Nc1ccc(F)c(Nc2ncccc2-c2ncnc3[nH]cnc23)c1F)c1ccc(F)cc1; 7.44
4. O=S(=O)(Nc1ccc(F)c(Nc2ncccc2-c2ncnc3[nH]cnc23)c1F)C1CCOC1 (stereo unspecified); 8.30
5. CCCS(=O)(=O)Nc1ccc(F)c(Nc2ncccc2-c2ncnc3[nH]cnc23)c1F; 8.05
6. O=S(=O)(Nc1ccc(F)c(Nc2ncccc2-c2ncnc3[nH]cnc23)c1F)N1CCCC1; 8.70
7. CCC(C)S(=O)(=O)Nc1ccc(F)c(Nc2ncccc2-c2ncnc3[nH]cnc23)c1F (stereo unspecified); 8.15
8. O=S(=O)(Nc1ccc(F)c(Nc2ncccc2-c2ncnc3[nH]cnc23)c1F)c1cn[nH]c1; 9.70
9. O=S(=O)(Nc1ccc(F)c(Nc2ncccc2-c2ncnc3[nH]cnc23)c1F)C1CCCCC1; 7.74
10. CN(C)S(=O)(=O)Nc1ccc(F)c(Nc2ncccc2-c2ncnc3[nH]cnc23)c1F; 8.10
11. CCN(CC)S(=O)(=O)Nc1ccc(F)c(Nc2ncccc2-c2ncnc3[nH]cnc23)c1F; 7.24
12. CC(C)(C)CS(=O)(=O)Nc1ccc(F)c(Nc2ncccc2-c2ncnc3[nH]cnc23)c1F; 8.22
13. O=S(=O)(Nc1ccc(F)c(Nc2ncccc2-c2ncnc3[nH]cnc23)c1F)C1CCOCC1; 7.51
14. O=S(=O)(Nc1ccc(F)c(Nc2ncccc2-c2ncnc3[nH]cnc23)c1F)c1ccccc1F; 8.52
15. O=S(=O)(Nc1ccc(F)c(Nc2ncccc2-c2ncnc3[nH]cnc23)c1F)c1cccc(F)c1; 8.52
16. O=S(=O)(CC1CC1)Nc1ccc(F)c(Nc2ncccc2-c2ncnc3[nH]cnc23)c1F; 8.10
17. O=S(=O)(Nc1ccc(F)c(Nc2ncccc2-c2ncnc3[nH]cnc23)c1F)N1CC[C@H](O)C1; 8.05
18. CCN(C)S(=O)(=O)Nc1ccc(F)c(Nc2ncccc2-c2ncnc3[nH]cnc23)c1F; 7.66
19. Cc1n[nH]c(C)c1S(=O)(=O)Nc1ccc(F)c(Nc2ncccc2-c2ncnc3[nH]cnc23)c1F; 6.67
20. Cn1cc(S(=O)(=O)Nc2ccc(F)c(Nc3ncccc3-c3ncnc4[nH]cnc34)c2F)cn1; 8.10
21. O=S(=O)(Nc1ccc(F)c(Nc2ncccc2-c2ncnc3[nH]cnc23)c1F)C1CCC1; 8.40
22. O=S(=O)(Nc1ccc(F)c(Nc2ncccc2-c2ncnc3[nH]cnc23)c1F)N1CC[C@@H](O)C1; 7.80
23. O=S(=O)(Nc1ccc(F)c(Nc2ncccc2-c2ncnc3[nH]cnc23)c1F)c1ccccn1; 7.68
24. CC(C)CS(=O)(=O)Nc1ccc(F)c(Nc2ncccc2-c2ncnc3[nH]cnc23)c1F; 8.22
25. CC(C)S(=O)(=O)Nc1ccc(F)c(Nc2ncccc2-c2ncnc3[nH]cnc23)c1F; 7.85
26. CCCC(C)S(=O)(=O)Nc1ccc(F)c(Nc2ncccc2-c2ncnc3[nH]cnc23)c1F (stereo unspecified); 7.74
27. O=S(=O)(Nc1ccc(F)c(Nc2ncccc2-c2ncnc3[nH]cnc23)c1F)c1ccccc1; 8.15
28. O=S(=O)(Nc1ccc(F)c(Nc2ncccc2-c2ncnc3[nH]cnc23)c1F)C1CCCC1; 8.70
29. O=S(=O)(CC(F)(F)F)Nc1ccc(F)c(Nc2ncccc2-c2ncnc3[nH]cnc23)c1F; 8.52
30. O=S(=O)(Nc1ccc(F)c(Nc2ncccc2-c2ncnc3[nH]cnc23)c1F)N1CCCCC1; 7.82
31. O=S(=O)(Nc1ccc(F)c(Nc2ncccc2-c2ncnc3[nH]cnc23)c1F)N1CCOCC1; 7.21
32. CS(=O)(=O)Nc1ccc(F)c(Nc2ncccc2-c2ncnc3[nH]cnc23)c1F; 6.44
33. O=S(=O)(Cc1ccccc1)Nc1ccc(F)c(Nc2ncccc2-c2ncnc3[nH]cnc23)c1F; 6.73
34. O=S(=O)(Nc1ccc(F)c(Nc2ncccc2-c2ncnc3[nH]cnc23)c1F)C1CC1; 7.39
35. O=S(=O)(Nc1ccc(F)c(Nc2ncccc2-c2ncnc3[nH]cnc23)c1F)c1nccs1; 9.00
